tested on: OVCAR-5 ovarian; assay: NCI-60 one-dose screen, 48 h (100 = growth as untreated, 0 = no growth, -100 = all killed); details: 10 µM unless noted
This is part of a sample that, as a whole, favours compounds with a hit. Of some 83,000 tested, about 20% had one in any assay.
ATTRIBUTE_MEASURED: growth (%)
Provide the reading as a plain figure in %.

growth reading for COC(=O)c1cc2c(=O)[nH]cc3c2c(n1)CCC3 : 99.8

growth reading for CCN(CC)CC(C)Nc1ccc(C)c2sc3ccccc3c(=O)c12 (stereo unspecified) : 68.9

growth reading for COc1ncc(-c2ccc3nc(N)n(-c4ccccc4C(F)(F)F)c(=O)c3c2)cc1S(=O)(=O)Nc1ccc(F)cc1F : 14.7

growth reading for O=c1c2c3c(sc2n2cnnc2n1Cc1ccccc1)CCCC3 : 89.6

growth reading for COCc1nc2ccccc2[nH]1 : 99.8

growth reading for Cc1ccc(-c2cc(O)c(-c3ccc(C)cc3C)cc2O)c(C)c1 : 96.9
